system: mutant SOD1 cell death rescue, 1 uM; experiment: suppressors of mutant SOD1 cell death (AID 1601)
pEC50: −log10 of the molar value. Records with an inconclusive call do not appear. Where a SMILES comes first, the peptide text is derived from it.
Label rule, in plain words: pEC50 of 6 and up is Satisfied, under 6 is Not satisfied.

Cc1cc(C(C)(C)CC(C)(C)C)ccc1OCCOCC[N+](C)(C)Cc1ccccc1    Satisfied
CC[C@@H](CO)NCCN[C@@H](CC)CO    Not satisfied
NCCCCC(N)C(=O)NC(Cc1c[nH]c2ccccc12)C(=O)NC(CCCCN)C(=O)O (stereo not drawn) (H-Lys-Trp-Lys-OH; configuration not given here)    Not satisfied
CC(=O)NS(=O)(=O)c1ccc(N)cc1    Not satisfied

###

tested on: mutant SOD1 cell death rescue, 1 uM; assay: suppressors of mutant SOD1 cell death (AID 1601)
Records with an inconclusive call do not appear.
readout-type: EC50

CCCC(CCC)C(=O)O    700 nM
CC(C)NCC(O)c1ccc(O)c(O)c1 (stereo not given)    1000 nM
CC(C)=CCC/C(C)=C/CO    1200 nM
CC[C@H]1OC(=O)[C@H](C)[C@@H](O[C@H]2C[C@@](C)(OC)[C@@H](O)[C@H](C)O2)[C@H](C)[C@@H](O[C@@H]2O[C@H](C)C[C@H](N(C)C)[C@H]2O)[C@](C)(O)C[C@@H](C)CN(C)[C@H](C)[C@@H](O)[C@]1(C)O    900 nM
CC(C)COCC(CN(Cc1ccccc1)c1ccccc1)N1CCCC1 (stereo not given)    1000 nM

Source: PubChem BioAssay AID1601
